Target: human sphingosine-1-phosphate receptor 1 (S1P1) (Homo sapiens (Human), UniProt P21453)
Sequence (P21453 whole entry, looked up): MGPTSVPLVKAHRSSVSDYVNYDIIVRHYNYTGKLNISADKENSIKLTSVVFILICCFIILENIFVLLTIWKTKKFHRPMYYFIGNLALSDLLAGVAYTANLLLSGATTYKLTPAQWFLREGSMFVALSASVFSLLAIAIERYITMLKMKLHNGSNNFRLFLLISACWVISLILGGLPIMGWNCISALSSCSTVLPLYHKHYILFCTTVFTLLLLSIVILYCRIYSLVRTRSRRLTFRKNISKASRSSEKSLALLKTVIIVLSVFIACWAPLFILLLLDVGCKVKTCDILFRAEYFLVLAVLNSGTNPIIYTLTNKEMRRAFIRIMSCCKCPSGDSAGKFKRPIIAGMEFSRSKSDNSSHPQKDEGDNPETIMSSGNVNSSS
Test: Inhibition of cAMP production (HTRF cAMP HiRange), S1P1 CHO-K1 cells
Assay type: cell-based
Details: CHO-K1; efficacy (SPAN) normalized to fingolimod; read-out: hS1P1 cAMP SPAN
Description: Stable clonal Chinese hamster ovary K1 (CHO-K1) cells co-expressing EA-β-arrestin2 and the human sphingosine-1-phosphate receptor 1 (NM_001400, S1P1) with a C-terminal Prolink™ tag were purchased from DiscoverX corporation (Cat #: 93-0207C2). […] Agonist-promoted G-protein responses were determined by measuring changes in intracellular cAMP using the HTRF® cAMP HiRange kit (CisBio, Cat #: 62AM6PEJ) based on time-resolved fluorescence resonance energy transfer (TR-FRET) technology. […]
Quantity Kind: Emax

Consider the compound CCC1(CC)CC(=O)c2cc(-c3nc(-c4ccc(NC(C)=O)cc4)no3)ccc2O1 . State its measured Emax. > 75%

Consider the compound CC(C)n1nnc2cc(-c3nc(-c4ccccn4)co3)ccc21 . State its measured Emax. > 75%

Consider the compound CC(C)n1nnc2cc(-c3nc4c(o3)COc3ccccc3-4)ccc21 . State its measured Emax. > 75%

Consider the compound CCCn1nnc2cc(-c3nc(-c4ccncc4)no3)ccc21 . State its measured Emax. > 75%

Consider the compound COc1cccc(-c2nc(-c3ccc4c(c3)nnn4C3CCCC3)no2)c1 . State its measured Emax. < 75%

Consider the compound CC(C)n1nnc2cc(-c3nc(Cc4ccccc4)no3)ccc21 . State its measured Emax. < 75%

Consider the compound Cc1ccc(-c2noc(-c3ccc4c(c3)nnn4C3CC3)n2)cn1 . State its measured Emax. < 75%

Consider the compound Cc1ccccc1-c1noc(-c2ccc3c(c2)nnn3C2CCCCC2)n1 . State its measured Emax. > 75%

Consider the compound Cc1ccccc1-c1cc(-c2ccc3c(c2)nnn3C(C)C)n(C)c1 . State its measured Emax. < 75%
